Target Under Test: T1, IL10 receptor (UniProt Q13651 22-578; Q08334 20-325, limits assumed)
T1 sequence (looked up) 1: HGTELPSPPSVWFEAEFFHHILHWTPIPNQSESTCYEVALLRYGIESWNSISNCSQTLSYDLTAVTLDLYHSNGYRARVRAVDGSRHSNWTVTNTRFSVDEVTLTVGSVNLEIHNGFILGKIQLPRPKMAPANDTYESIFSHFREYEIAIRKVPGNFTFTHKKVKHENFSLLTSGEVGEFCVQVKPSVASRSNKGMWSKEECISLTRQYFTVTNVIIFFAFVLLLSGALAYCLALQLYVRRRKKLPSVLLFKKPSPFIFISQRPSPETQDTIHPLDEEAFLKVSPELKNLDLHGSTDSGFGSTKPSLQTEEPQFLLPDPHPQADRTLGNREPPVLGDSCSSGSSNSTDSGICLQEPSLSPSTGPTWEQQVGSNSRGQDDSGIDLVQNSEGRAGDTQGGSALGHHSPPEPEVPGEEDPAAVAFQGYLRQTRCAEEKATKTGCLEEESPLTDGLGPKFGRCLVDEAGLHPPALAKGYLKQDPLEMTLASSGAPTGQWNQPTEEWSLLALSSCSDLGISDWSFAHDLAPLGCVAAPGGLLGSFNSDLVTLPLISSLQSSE
T1 sequence (looked up) 2: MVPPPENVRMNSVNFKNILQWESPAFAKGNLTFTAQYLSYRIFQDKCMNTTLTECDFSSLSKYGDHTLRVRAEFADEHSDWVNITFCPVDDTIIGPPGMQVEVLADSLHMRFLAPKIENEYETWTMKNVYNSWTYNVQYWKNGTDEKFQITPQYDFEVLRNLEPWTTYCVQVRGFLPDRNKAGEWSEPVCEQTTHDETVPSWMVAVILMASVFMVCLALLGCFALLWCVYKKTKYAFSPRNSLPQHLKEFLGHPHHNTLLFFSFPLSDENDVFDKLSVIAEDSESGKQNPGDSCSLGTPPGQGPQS
Assay Explanation: cell-based or functional assay
Endpoint: HEK-Blue IL10 EC50 (STAT-3 mediated SEAP expression) (nM)

IL4-10M(S) (ligand) KSKAVEQVKNAFNKLQEKGIYKAMSEFDIFINYIEAYMTMKIRNGSGGGGSGTSPGQGTQSENSCTHFPGNLPNMLRDLRDAFSRVKTFFQMKDQLDNLLLKESLLEDFKGYLGCQALSEMIQFYLEEVMPQAENQDPDIKAHVNSLGENLKTLRLRLRRCHRFLPCENGSGGGGSGTHKCDITLQEIIKTLNSLTEQKTLCTELTVTDIFAASKNTTEKETFCRAATVLRQFYSHHEKDTRCLGATAQQFHRHKQLIRFLKRLDRNLWGLAGLNSCPVKEANQSTLENFLERLKTIMREKYSKCSSHHHHHH = 0.117
IL4-10 fusion (wt, dimer) (ligand) HKCDITLQEIIKTLNSLTEQKTLCTELTVTDIFAASKNTTEKETFCRAATVLRQFYSHHEKDTRCLGATAQQFHRHKQLIRFLKRLDRNLWGLAGLNSCPVKEANQSTLENFLERLKTIMREKYSKCSSGSGGGGSGTSPGQGTQSENSCTHFPGNLPNMLRDLRDAFSRVKTFFQMKDQLDNLLLKESLLEDFKGYLGCQALSEMIQFYLEEVMPQAENQDPDIKAHVNSLGENLKTLRLRLRRCHRFLPCENKSKAVEQVKNAFNKLQEKGIYKAMSEFDIFINYIEAYMTMKIRN = 0.0289
